test: acute toxicity, single injection; assay type: in vivo, Rat; details: rat, in vivo, ip; intraperitoneal, single injection
OBSERVATION TYPE: LD50

Task: What measured LD50 goes with CCC1(O)CC(OC2CC(N(C)C)C(OC3CC(O)C(OC4CCC(=O)C(C)O4)C(C)O3)C(C)O2)c2c(cc3c(c2O)C(=O)c2c(O)cccc2C3=O)C1C(=O)OC (centres unmarked) ?
Result: 25 to 50 mg/kg

Task: What measured LD50 goes with CCC1(O)CC(OC2CC(N(C)C)C(OC3CC4OC5CC(=O)C(C)OC5OC4C(C)O3)C(C)O2)c2c(cc3c(c2O)C(=O)c2c(O)cccc2C3=O)C1C(=O)OC (centres unmarked) ?
Result: 10 to 15 mg/kg
